Let's look at some binders and their measured ETAG (OD).
Measured target: T1, antibody raised against ETAG
T1 construct: read-out of display; also called E-tag antibody; E tag antibody
Experiment summary: phage ELISA, 405 nm; anti-E-tag antibody coated
Method: For analysis of individual target binders, colonies were picked and phage prepared as described above using helper phage, M13KO7. Ninety-six-well microtiter plates were coated with 500 ng/well of specific target protein, 500 ng/well lactate dehydrogenase (LDH) irrelevant or non-specific target, 500 ng/well of positive control antibody raised against ETAG, and negative control of non-fat milk powder-PBS 2% at 4° C. overnight. […] Plates were analyzed at 405 nm. […]

Binder: DGI-2-40F-3-C6 (not shown: phage gene III coat protein (pCANTAB5E)) peptide: QMFSKGNWLAHPEGGVALGLSRESQLFRSCREFGYCMGPMAAAGAPVPYPDPLEPRP
ETAG (OD): 10.1
//
Binder: SLSLYWDAQVGCEVFWGYCVAAAGAPVPYPDPLEPRP (not shown: phage gene III coat protein (pCANTAB5E)) [DGI-2-20R-3-C10]
ETAG (OD): 14.7
//
Binder: FSSVLGLLDRRGVPVVVGEDAAAGAPVPYPDPLEPRP (not shown: phage gene III coat protein (pCANTAB5E)) [DGI-2-20F-3-C3]
ETAG (OD): 11.6
//
Binder: DGI-2-40F-4-F6 (not shown: phage gene III coat protein (pCANTAB5E)) peptide: SYRNFAMQSSLQVRRGSVVEDGTCWWEGVRCYSGAAAGAPVPYPDPLEPRP
ETAG (OD): 13.5
//
Binder: RWSICRGLQYSIPGCAVEDLSDVMAAAAGAPVPYPDPLEPRP (not shown: phage gene III coat protein (pCANTAB5E)) [DGI-2-20C-4-H316]
ETAG (OD): 7.2
//
Binder: YDQVWNSLLAAVLGGQELVNAAAGAPVPYPDPLEPRP (not shown: phage gene III coat protein (pCANTAB5E)) [DGI-2-20F-3-D112]
ETAG (OD): 19.9
//
Binder: DGI-2-40F-3-B116 (not shown: phage gene III coat protein (pCANTAB5E)) peptide: GVVRAQQGLRYELQGDRYRLRRTQWLTVTYCSPSWAFAGCAAAGAPVPYPDPLEPRP
ETAG (OD): 6.5
//
Binder: DGI-2-40F-3-D12 (not shown: phage gene III coat protein (pCANTAB5E)) peptide: QGSAHVVRPPGVYDVPWKVGMFFHPQNWPNSWGRAYFRSGAAAGAPVPYPDPLEPRP
ETAG (OD): 7.3
//
Binder: DGI-2-40F-3-D6 (not shown: phage gene III coat protein (pCANTAB5E)) peptide: GLEPVPFQTDKRIAMGWTREWLVNGYGAAHRRDARMQSGHAAAGAPVPYPDPLEPRP
ETAG (OD): 11.4
//
Binder: RFWSVSYQGGRVMCREWGYCLPIAAAGAPVPYPDPLEPRP (not shown: phage gene III coat protein (pCANTAB5E)) [DGI-2-40F-3-C92]
ETAG (OD): 9.8
//
Binder: DGI-2-40F-3-D3 (not shown: phage gene III coat protein (pCANTAB5E)) peptide: VQFAMTLSSRLWQHARHPLTDDAPPTVSFGTRRETLAGKAAAAGAPVPYPDPLEPRP
ETAG (OD): 0.9
//
Binder: RCFQDGRMLALSPTYLIRRSVSPLVVGPLPTPAAAGAPVPYPDPLEPRP (not shown: phage gene III coat protein (pCANTAB5E)) [DGI-2-40F-3-A24]
ETAG (OD): 11.7
//
Binder: DGI-2-40F-4-F12 (not shown: phage gene III coat protein (pCANTAB5E)) peptide: GLYRRAGDASVGFSRWGRFDCQVYFSVECLLGSSWGGYSAAAGAPVPYPDPLEPRP
ETAG (OD): 8.7
//
Binder: LSRIWRGVIESAREVESRGIAAAGAPVPYPDPLEPRP (not shown: phage gene III coat protein (pCANTAB5E)) [DGI-2-20F-3-B1]
ETAG (OD): 11.4
//
Binder: GMWIRPNGHMFLQGGYTARSAAAGAPVPYPDPLEPRP (not shown: phage gene III coat protein (pCANTAB5E)) [DGI-2-20R-4-G8]
ETAG (OD): 14.5
//
Binder: SWRLWVSGELQGDRRKGLRGAAAGAPVPYPDPLEPRP (not shown: phage gene III coat protein (pCANTAB5E)) [DGI-2-20R-3-B7]
ETAG (OD): 11.7
//
Binder: DGI-2-40F-3-A7 (not shown: phage gene III coat protein (pCANTAB5E)) peptide: CAYRWGLFRGPGRVDYDLQVVGIMMWPGPIPDRSSRGSVAAAAGAPVPYPDPLEPRP
ETAG (OD): 8.7

Data provenance: patent US7056679
